Assignment: determine reported protein stability index for the given sequences.
system: Saccharomyces cerevisiae; assay: protein stability index of tFT-peptide fusion (C-terminal peptide) (PSI (0-1 scale)); higher = more stable (slower turnover); conditions: genetic background: wild type; temperature: 30 C
Numbers only.

Use the examples below as a reference point.
Suppose we examine the sequence `ARIWLGSTSVSR` ; what protein stability index value has been reported? 0.739

What do we get for `KKRQKKKKLIPQ` ? 0.697

Would you kindly repeat that for `CGCCTSSPFVSQ` ? 0.687

// next record `WSLPILPPPSPD` 0.663

Then `WFLRSFGIQRSG` ? 0.511

Record protein stability index per entry; entries follow.
1. RRKGRKTSMRNG
2. FFCTHFQLLFSP
3. YGTGNGRRTYFD
4. FPLPSPPRPFSF
5. ALFTFFSARLTR
6. SFPPVSSLSFSP
7. ISRDNSQITRNM

0.667
0.641
0.735
0.761
0.748
0.707
0.68

---

tested on: Saccharomyces cerevisiae; test: protein stability index of tFT-peptide fusion (C-terminal peptide) (PSI (0-1 scale)); higher = more stable (slower turnover); details: genetic background: das1 deletion; temperature: 30 C
parameter: protein stability index
One number for each entry.

Tell me the measured protein stability index of RLGDVLHVCCPS [YHL049C C-terminal 12 aa] , please. 0.717

Answer for every listed entry: what is its protein stability index? The entries follow.
1. AKGKGKSDEKIL [YIL086C C-terminal 12 aa]
2. GKTTYSEVWAGY [VVS1 C-terminal 12 aa]
3. KRRSDSKESRKL [YPR145C-A C-terminal 12 aa]
4. PLALFYSHLILL [YGR151C C-terminal 12 aa]
5. KYYETVGKADII [AIM36 C-terminal 12 aa]
6. KEWKEKEKTGKQ [MPC1 C-terminal 12 aa]
7. KLAKPAPTSKLD [TDA4 C-terminal 12 aa]

1: 0.703; 2: 0.746; 3: 0.713; 4: 0.6; 5: 0.688; 6: 0.728; 7: 0.69

Report protein stability index for each item below.
1. SKADSYRSVIRH [DLT1 C-terminal 12 aa]
2. VKSSMGPAFRLY [RPL1A C-terminal 12 aa]
3. NNYNLWFRLSSS [ECL1 C-terminal 12 aa]

1. 0.667
2. 0.685
3. 0.702

---

system: Saccharomyces cerevisiae; assay: protein stability index of tFT-peptide fusion (C-terminal peptide) (PSI (0-1 scale)); higher = more stable (slower turnover); conditions: genetic background: wild type; temperature: 30 C
For each entry below, report its protein stability index value.

For the sequence `LFPVTSLFPPLP` , what protein stability index is on record? 0.706

Queued: `RLGGGGVGVAGV` 0.679

Also need `IIDKQENNLKSE` , thanks. 0.751

Hi team, please reply with protein stability index for each item in this list.
1. LNHSLLHILSRV
2. RGEVGKVRGPGT
3. GGLGLVESVFVI

0.656
0.71
0.67

---

Exercise: for every item that follows, state its recorded protein stability index.
tested on: Saccharomyces cerevisiae; assay: protein stability index of tFT-peptide fusion (C-terminal peptide) (PSI (0-1 scale)); higher = more stable (slower turnover); settings: genetic background: wild type; temperature: 30 C
One number for each entry.

Quick batch: protein stability index for everything below.
1. VCVLGGVWGCRG
2. LTASPPRLPPFP

1. 0.66
2. 0.701

Please supply protein stability index for each of the following items, keeping them in order.
1. PPPAPARPPTPP
2. GVVVLGRRMGAG
3. PPPNPFRGPFPL

[0.686, 0.644, 0.663]

---

test system: Saccharomyces cerevisiae; experiment: protein stability index of tFT-peptide fusion (C-terminal peptide) (PSI (0-1 scale)); higher = more stable (slower turnover); settings: genetic background: das1 deletion; temperature: 37 C
Please respond with reported protein stability index for every item in the list.
Numbers only.

Known results for sequences:
So what's the measured protein stability index for this one? `SLLFPLPRPLLD` 0.719

Consider next the sequence `YGWILQLPCFVI` in the same way. 0.373

Also `QPTGYFKLIIIK` , if possible. 0.473

Another sequence to check: `GGICVVAYWRLA` 0.564

Entry to check: `PSPFHSFYLRLI` 0.712

And for `FCIYLCLSTSIT` ? 0.306

Next sequence up: `LSVRLYRTVFLV` 0.67

Next up: `IACISCLLCVVV` 0.607

Likewise for `RSAVECRVTNIR` ? 0.724

Another sequence to look at: `GIVSGEGAVGVG` 0.521

Give protein stability index for all sequences that follow.
1. FVLWLIYVDLFF
2. GDLEFCCLIIVL
3. SLCSSVQVWSVV
4. IFVFVSFPSCVL

1: 0.342; 2: 0.575; 3: 0.732; 4: 0.627

For each of the sequences below, note its protein stability index.
1. RIRLYWVLRRLG
2. LYVQSVCFSVPR

[0.758, 0.509]

Batch lookup, protein stability index per entry.
1. MLLFVSCCVFLF
2. WVLSRAAFVFFF
3. SFVFLVRRWLFV
4. YLFLPGGEVSVH
5. RVVNRWGVCFLG

1. 0.292
2. 0.606
3. 0.622
4. 0.666
5. 0.733

---

tested on: Saccharomyces cerevisiae; assay: protein stability index of tFT-peptide fusion (C-terminal peptide) (PSI (0-1 scale)); higher = more stable (slower turnover); settings: genetic background: das1 deletion; temperature: 37 C
parameter: protein stability index

These solved cases illustrate the format of a correct answer.
Record request: protein stability index value, item `LLFCFSVILFTC` 0.291

Same read-out for `RRIILAGLFLIS` ? 0.623

And what about the sequence `VLLCGRMVVVEW` ? 0.143

Would you mind giving protein stability index for every sequence in the list below?
1. LHLSSFVILLEL
2. CLHFLTWVRICS
3. PALPQPMNPAPP
4. RLPRILVLVCLF
5. AFRFLAVCVGCG
6. LCYFFFISLFLG
7. VTEGMKEVIKQI
8. ESCIFLMWLTVL

[0.458, 0.526, 0.727, 0.383, 0.291, 0.55, 0.728, 0.379]

---

Assign protein stability index to each entry below.
system: Saccharomyces cerevisiae; test: protein stability index of tFT-peptide fusion (C-terminal peptide) (PSI (0-1 scale)); higher = more stable (slower turnover); details: genetic background: wild type; temperature: 30 C

# value lookup — system Saccharomyces cerevisiae, readout protein stability index, item `GGCCLWVGFQGG` 0.703

For `ALLSFVVSSGPA` then? 0.675

Please do the same for `ASLVGGVLLVVV` as well. 0.454

Consider next the sequence `PSFPSSSCTSPI` in the same way. 0.693

Count: 4. Required value per item: protein stability index.
1. SIIRYNKSATIT
2. ACPPRPPFRSPS
3. SILVAGVSAGRC
4. STEHAPDLKSER

1: 0.667; 2: 0.698; 3: 0.669; 4: 0.695

For every listed record, write down its protein stability index.
1. PLRKGVHTHNNK
2. RNRNKKIIREKK

[0.632, 0.7]

Form: Entry = `PRSTLLPRSSSC` | System = Saccharomyces cerevisiae | protein stability index = ____ 0.654

---

Could you please report measured protein stability index for the items listed next?
test system: Saccharomyces cerevisiae; assay: protein stability index of tFT-peptide fusion (C-terminal peptide) (PSI (0-1 scale)); higher = more stable (slower turnover); conditions: genetic background: wild type; temperature: 30 C
Give bare numbers.

Completed entries (count: 4):
Would you mind telling me what protein stability index value was observed for `IERGLEGHLGHC` ? 0.668

Entry `PPPSDPPPSPPP` please 0.665

Request: `FFPPLPATSVPA` 0.561

Okay, and `RGGEGVWVVGRV` ? 0.703

Hi! Can you tell me protein stability index for each of these sequences?
1. PLCPPPPVASFV
2. GKSREKEKESRE
3. SFATPCCYPLHF

0.64
0.658
0.713

---

Please respond with reported protein stability index for every item in the list.
test system: Saccharomyces cerevisiae; test: protein stability index of tFT-peptide fusion (C-terminal peptide) (PSI (0-1 scale)); higher = more stable (slower turnover); details: genetic background: wild type; temperature: 30 C
One number for each entry.

Which protein stability index value belongs to `FFVKGFRLLVFQ` ? 0.384

Moving on to the next sequence: `SGRFRFVLLGLV` 0.156

Param item: `ESCFGMAIFCVT` 0.334

Parameters: items (list). Returns: protein stability index for each item.
1. IFSTQMVRFSLL
2. CLCYFLFYFLFV
3. FLVIILFFLYMR
4. VFSLFLVLNYPF

1: 0.272; 2: 0.442; 3: 0.184; 4: 0.362

For the 4 sequences below, give their protein stability index values.
1. PSPPPYAPPIPA
2. GLLAEPALLLLS
3. RIIKIRAISINL
4. LSVYGFYKMPAG

0.447
0.62
0.468
0.491

Give me protein stability index for each of these sequences, listed below.
1. VSFFCLICRVYP
2. VVVFRWTCWLLV
3. CFVSFLHLLYFS
4. VGIFKVCALVLR
5. RSNLSKSWHRIG

1. 0.313
2. 0.0385
3. 0.296
4. 0.335
5. 0.11

Respectfully, I request protein stability index for each entry included below.
1. SGRFRAFVLRSM
2. YFTNCYRSILTF
3. FFLVILSWWVGE
4. FCFLLLSWAFWV
5. GFSVFSHSVWVR
6. KFWVVLIEIKYH
7. VIFFEFFLSFGE

[0.298, 0.355, 0.205, 0.103, 0.194, 0.0691, 0.32]

protein stability index lookup needed for `IYTLIINKSKAQ` , thanks. 0.362

The measurements presented in this section are drawn from the supplement of paper PMC10724198.
